Taken from the supplement of paper PMC10307832.

We begin with a simple list: items and their reported relative viability.
system: COR-L 105; experiment: relative viability (nuclei count vs DMSO), 5 days (fraction); higher = more cells survive; conditions: first compound 0.04 µM
Readout label: relative viability

>>> reading("C[C@@H]1CN(CC(=O)Nc2ccc3c(c2)Cc2cccc(-c4cc(=O)cc(N5CCOCC5)o4)c2S3)C[C@H](C)O1 + N=C(N)NC(=N)NCCc1ccccc1 [Phenformin] (partner 250 µM)")
0.503
>>> reading("COc1cc(N2CCC(C(N)=O)CC2)ccc1Nc1nc(N)c(Cl)c(Nc2ccccc2S(=O)(=O)C(C)C)n1 [HG-5-88-01] + O=C(c1cc(Cc2n[nH]c(=O)c3ccccc23)ccc1F)N1CCN(C(=O)C2CC2)CC1 [Olaparib] (partner 8 µM)")
0.752

* * *

tested on: NCI-H2228; test: relative viability (nuclei count vs DMSO), 5 days (fraction); higher = more cells survive; settings: first compound 0.03162 µM
Measured relative viability of individual entries
Readout label: relative viability

>>> reading("CC(C)Oc1cc(Nc2nc(N[C@@H](C)c3ccc(F)cn3)ncc2Cl)n[nH]1 [AZ23] + CC(C)C[C@H](NC(=O)[C@H](Cc1ccccc1)NC(=O)c1cnccn1)B(O)O [Bortezomib] (partner 0.002 µM)")
1.19
>>> reading("CC(C)Oc1cc(Nc2nc(N[C@@H](C)c3ccc(F)cn3)ncc2Cl)n[nH]1 [AZ23] + O=C(c1cc(Cc2n[nH]c(=O)c3ccccc23)ccc1F)N1CCN(C(=O)C2CC2)CC1 [Olaparib] (partner 8 µM)")
0.775
>>> reading("CC(C)Oc1cc(Nc2nc(N[C@@H](C)c3ccc(F)cn3)ncc2Cl)n[nH]1 [AZ23] + CCNC(=O)c1noc(-c2cc(C(C)C)c(O)cc2O)c1-c1ccc(CN2CCOCC2)cc1 [Luminespib] (partner 0.01 µM)")
0.141
>>> reading("CC(C)Oc1cc(Nc2nc(N[C@@H](C)c3ccc(F)cn3)ncc2Cl)n[nH]1 [AZ23] + CS(=O)(=O)N1CCN(Cc2cc3nc(-c4cccc5[nH]ncc45)nc(N4CCOCC4)c3s2)CC1 [Pictilisib] (partner 1 µM)")
0.346
>>> reading("CC(C)Oc1cc(Nc2nc(N[C@@H](C)c3ccc(F)cn3)ncc2Cl)n[nH]1 [AZ23] + COc1cc2c(Oc3ccc(NC(=O)C4(C(=O)Nc5ccc(F)cc5)CC4)cc3F)ccnc2cc1OCCCN1CCOCC1 [Foretinib] (partner 0.25 µM)")
1.26

* * *

Known relative viability of a selection of compounds
tested on: EPLC-272H; assay: relative viability (nuclei count vs DMSO), 5 days (fraction); higher = more cells survive; conditions: first compound 0.4 µM
Readout label: relative viability

>>> reading("Clc1ccc(Nc2nnc(Cc3ccncc3)c3ccccc23)cc1 [Vatalanib] + CS(=O)(=O)N1CCN(Cc2cc3nc(-c4cccc5[nH]ncc45)nc(N4CCOCC4)c3s2)CC1 [Pictilisib] (partner 1 µM)")
0.151
>>> reading("C[C@@H]1CN(CC(=O)Nc2ccc3c(c2)Cc2cccc(-c4cc(=O)cc(N5CCOCC5)o4)c2S3)C[C@H](C)O1 + CCNC(=O)c1noc(-c2cc(C(C)C)c(O)cc2O)c1-c1ccc(CN2CCOCC2)cc1 [Luminespib] (partner 0.01 µM)")
0.26
>>> reading("COc1cc(N2CCC(C(N)=O)CC2)ccc1Nc1nc(N)c(Cl)c(Nc2ccccc2S(=O)(=O)C(C)C)n1 [HG-5-88-01] + CC1(C)CCC(c2ccc(Cl)cc2)=C(CN2CCN(c3ccc(C(=O)NS(=O)(=O)c4ccc(N[C@H](CCN5CCOCC5)CSc5ccccc5)c(S(=O)(=O)C(F)(F)F)c4)cc3)CC2)C1 [Navitoclax] (partner 0.5 µM)")
1.28
>>> reading("Clc1ccc(Nc2nnc(Cc3ccncc3)c3ccccc23)cc1 [Vatalanib] + Cc1nc(Nc2ncc(C(=O)Nc3c(C)cccc3Cl)s2)cc(N2CCN(CCO)CC2)n1 [Dasatinib] (partner 0.075 µM)")
0.449
>>> reading("COc1cc(N2CCC(C(N)=O)CC2)ccc1Nc1nc(N)c(Cl)c(Nc2ccccc2S(=O)(=O)C(C)C)n1 [HG-5-88-01] + Cc1cc(Nc2cc(N3CCN(C)CC3)nc(Sc3ccc(NC(=O)C4CC4)cc3)n2)n[nH]1 [Tozasertib] (partner 0.1 µM)")
0.323
>>> reading("Clc1ccc(Nc2nnc(Cc3ccncc3)c3ccccc23)cc1 [Vatalanib] + Cc1nc(NC(=O)N2CCC[C@H]2C(N)=O)sc1-c1ccnc(C(C)(C)C(F)(F)F)c1 [Alpelisib] (partner 2 µM)")
1.08
>>> reading("C[C@@H]1CN(CC(=O)Nc2ccc3c(c2)Cc2cccc(-c4cc(=O)cc(N5CCOCC5)o4)c2S3)C[C@H](C)O1 + Nc1nc2[nH]cc(CCc3ccc(C(=O)N[C@@H](CCC(=O)O)C(=O)O)cc3)c2c(=O)[nH]1 [Pemetrexed] (partner 0.2 µM)")
0.313
>>> reading("Clc1ccc(Nc2nnc(Cc3ccncc3)c3ccccc23)cc1 [Vatalanib] + C[C@@H](Oc1cc(-c2cnn(C3CCNCC3)c2)cnc1N)c1c(Cl)ccc(F)c1Cl [Crizotinib] (partner 1 µM)")
0.965

* * *

system: BEN; test: relative viability (nuclei count vs DMSO), 5 days (fraction); higher = more cells survive; conditions: first compound 4 µM
Lab note: cut-off is 0.7. Strictly less in relative viability is fulfilled. Exactly 0.7 or more is not fulfilled.

>>> label("Clc1ccc(Nc2nnc(Cc3ccncc3)c3ccccc23)cc1 [Vatalanib] + CC(C)C[C@H](NC(=O)[C@H](Cc1ccccc1)NC(=O)c1cnccn1)B(O)O [Bortezomib] (partner 0.002 µM)")
"not fulfilled"
>>> label("COc1cc(N2CCC(C(N)=O)CC2)ccc1Nc1nc(N)c(Cl)c(Nc2ccccc2S(=O)(=O)C(C)C)n1 [HG-5-88-01] + Cc1cc(Nc2cc(N3CCN(C)CC3)nc(Sc3ccc(NC(=O)C4CC4)cc3)n2)n[nH]1 [Tozasertib] (partner 0.1 µM)")
"fulfilled"
>>> label("Clc1ccc(Nc2nnc(Cc3ccncc3)c3ccccc23)cc1 [Vatalanib] + Nc1nc2[nH]cc(CCc3ccc(C(=O)N[C@@H](CCC(=O)O)C(=O)O)cc3)c2c(=O)[nH]1 [Pemetrexed] (partner 0.2 µM)")
"not fulfilled"
>>> label("C[C@@H]1CN(CC(=O)Nc2ccc3c(c2)Cc2cccc(-c4cc(=O)cc(N5CCOCC5)o4)c2S3)C[C@H](C)O1 + CC1(C)CCC(c2ccc(Cl)cc2)=C(CN2CCN(c3ccc(C(=O)NS(=O)(=O)c4ccc(N[C@H](CCN5CCOCC5)CSc5ccccc5)c(S(=O)(=O)C(F)(F)F)c4)cc3)CC2)C1 [Navitoclax] (partner 0.5 µM)")
"fulfilled"
>>> label("C[C@@H]1CN(CC(=O)Nc2ccc3c(c2)Cc2cccc(-c4cc(=O)cc(N5CCOCC5)o4)c2S3)C[C@H](C)O1 + CS(=O)(=O)N1CCN(Cc2cc3nc(-c4cccc5[nH]ncc45)nc(N4CCOCC4)c3s2)CC1 [Pictilisib] (partner 1 µM)")
"fulfilled"

* * *

tested on: NCI-H1703; assay: relative viability (nuclei count vs DMSO), 5 days (fraction); higher = more cells survive; details: first compound 0.4 µM
Reported relative viability by item:
Readout label: relative viability

>>> reading("Clc1ccc(Nc2nnc(Cc3ccncc3)c3ccccc23)cc1 [Vatalanib] + CS(=O)(=O)CCNCc1ccc(-c2ccc3ncnc(Nc4ccc(OCc5cccc(F)c5)c(Cl)c4)c3c2)o1 [Lapatinib] (partner 2 µM)")
1.4
>>> reading("Clc1ccc(Nc2nnc(Cc3ccncc3)c3ccccc23)cc1 [Vatalanib] + C[C@@H](Oc1cc(-c2cnn(C3CCNCC3)c2)cnc1N)c1c(Cl)ccc(F)c1Cl [Crizotinib] (partner 1 µM)")
0.866
>>> reading("Clc1ccc(Nc2nnc(Cc3ccncc3)c3ccccc23)cc1 [Vatalanib] + COc1cc2c(Oc3ccc(NC(=O)C4(C(=O)Nc5ccc(F)cc5)CC4)cc3F)ccnc2cc1OCCCN1CCOCC1 [Foretinib] (partner 0.25 µM)")
0.335
>>> reading("Clc1ccc(Nc2nnc(Cc3ccncc3)c3ccccc23)cc1 [Vatalanib] + CS(=O)(=O)N1CCN(Cc2cc3nc(-c4cccc5[nH]ncc45)nc(N4CCOCC4)c3s2)CC1 [Pictilisib] (partner 1 µM)")
0.242
>>> reading("Clc1ccc(Nc2nnc(Cc3ccncc3)c3ccccc23)cc1 [Vatalanib] + Cc1nc(NC(=O)N2CCC[C@H]2C(N)=O)sc1-c1ccnc(C(C)(C)C(F)(F)F)c1 [Alpelisib] (partner 2 µM)")
0.395
>>> reading("COc1cc(N2CCC(C(N)=O)CC2)ccc1Nc1nc(N)c(Cl)c(Nc2ccccc2S(=O)(=O)C(C)C)n1 [HG-5-88-01] + Cc1nc(NC(=O)N2CCC[C@H]2C(N)=O)sc1-c1ccnc(C(C)(C)C(F)(F)F)c1 [Alpelisib] (partner 2 µM)")
0.38
>>> reading("Clc1ccc(Nc2nnc(Cc3ccncc3)c3ccccc23)cc1 [Vatalanib] + CC(C)C[C@H](NC(=O)[C@H](Cc1ccccc1)NC(=O)c1cnccn1)B(O)O [Bortezomib] (partner 0.002 µM)")
0.558
